# maps each entry to its Kb
Molecular target: human orexin-2 (hOX2) receptors (Homo sapiens, UniProt O43614)
Construct: expressed in transfected cells
Experiment: Intracellular Ca2+ mobilization assay (FLIPR), antagonism of orexin-A
Type: cell-based
Settings: CHO(dHFr−) cells stably expressing hOX2; orexin-A at EC80 as agonist; Kb=IC50/(1+[A]/EC50); read-out: Kb (μM) OX2R (human)
Source text: R^7 and R^8 in scheme 5 are hydrogen, and the other substituents are as described above The compounds were investigated in accordance with the test given hereinafter. Intracellular Ca^2+ Mobilization Assay […]
Counter-ions that a name gives are not always drawn.
ASSAY_READOUT: Kb (µM)

compound="CNC(=O)[C@H](N[C@@H](CCc1ccc(C(F)(F)F)nc1)c1ccc(C)c(OC)c1)c1ccccc1 (racemic)" assay_system="human orexin-2 (hOX2) receptors (Homo sapiens, UniProt O43614)" quantitative_readout=0.0034
compound="CNC(=O)[C@@H](N[C@H](CCc1ccc(C(F)(F)F)cc1)c1cccc(OC)c1)c1ccccc1 [Example 222, hydrochloride]" assay_system="human orexin-2 (hOX2) receptors (Homo sapiens, UniProt O43614)" quantitative_readout=0.0171
compound="CCNC(=O)[C@H](NC(CCc1ccc(C(F)(F)F)cc1)c1ccc(OC)c(OC)c1)c1ccccc1 (single isomer, unassigned)" assay_system="human orexin-2 (hOX2) receptors (Homo sapiens, UniProt O43614)" quantitative_readout=0.0026
compound=CNC(=O)[C@H](N[C@@H](CCc1ccc(Cl)cc1)c1ccc(F)c(C)c1)c1ccccc1 assay_system="human orexin-2 (hOX2) receptors (Homo sapiens, UniProt O43614)" quantitative_readout=0.0059

###

Biological target: human orexin-2 (hOX2) receptors (Homo sapiens, UniProt O43614)
Construct: expressed in transfected cells
Sequence (O43614 1-444): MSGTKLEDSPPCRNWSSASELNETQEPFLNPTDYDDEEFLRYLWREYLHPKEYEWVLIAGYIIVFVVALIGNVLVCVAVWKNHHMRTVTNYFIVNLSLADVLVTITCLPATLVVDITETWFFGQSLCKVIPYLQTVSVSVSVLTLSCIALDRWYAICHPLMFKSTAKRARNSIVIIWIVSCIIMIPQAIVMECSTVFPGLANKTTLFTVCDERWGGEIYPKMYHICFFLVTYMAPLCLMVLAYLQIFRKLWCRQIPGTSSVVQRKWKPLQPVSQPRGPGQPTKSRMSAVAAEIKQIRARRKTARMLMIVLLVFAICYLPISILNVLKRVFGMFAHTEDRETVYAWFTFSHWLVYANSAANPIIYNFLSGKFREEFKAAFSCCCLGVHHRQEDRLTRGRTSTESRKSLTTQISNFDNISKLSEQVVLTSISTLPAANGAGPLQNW
Assay: Intracellular Ca2+ mobilization assay (FLIPR), antagonism of orexin-A
Assay type: cell-based
Details: CHO(dHFr−) cells stably expressing hOX2; orexin-A at EC80 as agonist; Kb=IC50/(1+[A]/EC50); read-out: Kb (μM) OX2R (human)
Param threshold (0.01 µM) applies to Kb; output rule met when value >= threshold, rule not met when value < threshold.

molecule="CNC(=O)C(NC(CCc1ccc(C(F)(F)F)cc1)c1sc(C)nc1C)c1ccccc1 (centres unmarked) [Example 93]" category="rule met"
molecule="Cc1cc([C@H](CCc2ccc(C(F)(F)F)nc2)N[C@@H](C(=O)NCCO)c2ccccc2)ccc1F (racemic) [Example 356]" category="rule not met"
molecule="CNC(=O)[C@H](N[C@@H](CCc1ccc(C(F)(F)F)cc1)c1ccc(OC)c(OC)c1)c1ccc(F)cc1 [Example 95]" category="rule not met"
molecule="CNC(=O)[C@H](N[C@@H](CCc1ccc(C(F)(F)F)cc1)c1cccnc1OC)c1ccccc1 (racemic) [Example 179]" category="rule not met"
molecule="CNC(=O)[C@H](N[C@@H](CCc1ccc(C(F)(F)F)cc1)c1cccc(C)n1)c1ccccc1 (racemic) [Example 207]" category="rule not met"
molecule="CNC(=O)[C@H](N[C@@H](CCc1ccc(C(F)(F)F)nc1)c1ccc(F)c(C)c1)c1ccc(OC)cc1 (racemic) [Example 350]" category="rule met"
molecule="CNC(=O)C(NC(CCc1ccc(C(F)(F)F)cc1)c1cc(C(C)C)no1)c1ccccc1 (centres unmarked) [Example 92]" category="rule not met"
molecule="CNC(=O)C(NC(CCc1ccc(C(F)(F)F)cc1)c1sc(C)nc1C)c1ccc(F)cc1 (centres unmarked) [Example 80]" category="rule met"
molecule="CNC(=O)[C@H](N[C@@H](CCc1ccc(C(F)(F)F)cc1)c1ccc2c(c1)CCCO2)c1ccccc1 [Example 113]" category="rule not met"
molecule="CNC(=O)[C@H](N[C@@H](CCc1ccc(C)cc1)c1ccc(OC)c(OC)c1)c1ccccc1 (racemic) [Example 209]" category="rule not met"
molecule="CNC(=O)[C@H](N[C@@H](CCc1ccc(C(F)(F)F)cc1)c1cccc(OC(F)F)c1)c1ccc(C)cc1 [Example 389]" category="rule not met"
molecule="CNC(=O)[C@H](N[C@@H](CCc1ccc(C(F)(F)F)nc1)c1ccc(F)c(OC)c1)c1ccc(Cl)cc1 (racemic) [Example 230]" category="rule met"
molecule="CNC(=O)[C@H](N[C@@H](CCc1ccc(C(F)(F)F)nc1)c1cc(Cl)ccc1OC)c1ccc(F)cc1 [Example 104]" category="rule met"
molecule="CNC(=O)[C@H](NC(CCc1ccc(C(F)(F)F)cc1)c1ccc(OC)c(OC)c1)c1ccccc1 (single isomer, unassigned) [Example 6]" category="rule not met"

Cited source for all entries: patent US7829563B2
